# testedSystem: T1, human MSLN-FL-his protein (human, UniProt Q13421 296-580)
# T1 construct: made in HEK293E cells, purified on nickel column; also called hMSLN-FL-his; human MSLN full-length protein; not shown: His tag
# T1 sequence (Q13421 other isoform, or with tags, fused parts or gaps): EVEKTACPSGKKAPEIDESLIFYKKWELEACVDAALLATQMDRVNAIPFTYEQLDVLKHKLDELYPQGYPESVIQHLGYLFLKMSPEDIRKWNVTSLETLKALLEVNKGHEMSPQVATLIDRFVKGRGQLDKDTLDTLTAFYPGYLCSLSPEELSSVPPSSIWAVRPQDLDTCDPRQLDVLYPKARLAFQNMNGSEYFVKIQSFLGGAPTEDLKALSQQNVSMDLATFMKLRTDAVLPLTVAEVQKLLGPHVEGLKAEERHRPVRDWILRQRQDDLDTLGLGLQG
# experimentDescription: competitive ELISA; row Tab142; note: test concentration or dose not given here
Reported competition rate values follow for various binders
Write the value in % as a bare number.

Worked examples follow.
S009-F8-27.1 (antibody, human IgG1, kappa, V domains shown, human-murine chimeric antibody, human IgG1/kappa constant regions) VH: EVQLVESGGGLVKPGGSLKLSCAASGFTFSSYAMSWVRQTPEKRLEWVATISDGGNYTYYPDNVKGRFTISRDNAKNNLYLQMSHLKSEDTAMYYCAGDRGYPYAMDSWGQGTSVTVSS VL: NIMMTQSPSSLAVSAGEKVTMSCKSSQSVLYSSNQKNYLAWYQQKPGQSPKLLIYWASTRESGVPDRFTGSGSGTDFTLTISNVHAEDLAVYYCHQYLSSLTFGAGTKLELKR
86.2
S009-F8-5.15 (antibody, human IgG1, kappa, V domains shown, human-murine chimeric antibody, human IgG1/kappa constant regions) VH: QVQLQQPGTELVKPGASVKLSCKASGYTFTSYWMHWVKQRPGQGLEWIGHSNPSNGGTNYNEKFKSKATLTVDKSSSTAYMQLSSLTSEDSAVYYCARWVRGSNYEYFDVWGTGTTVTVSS VL: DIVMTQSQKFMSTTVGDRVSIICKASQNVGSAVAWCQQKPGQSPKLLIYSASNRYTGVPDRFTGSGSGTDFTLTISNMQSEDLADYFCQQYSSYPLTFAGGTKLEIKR
15.3

The recorded competition rate for S009-F8-15.19 (antibody, human IgG1, kappa, V domains shown, human-murine chimeric antibody, human IgG1/kappa constant regions) VH: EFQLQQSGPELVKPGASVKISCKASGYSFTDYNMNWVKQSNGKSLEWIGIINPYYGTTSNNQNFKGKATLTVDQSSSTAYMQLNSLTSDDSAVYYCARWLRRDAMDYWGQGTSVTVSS VL: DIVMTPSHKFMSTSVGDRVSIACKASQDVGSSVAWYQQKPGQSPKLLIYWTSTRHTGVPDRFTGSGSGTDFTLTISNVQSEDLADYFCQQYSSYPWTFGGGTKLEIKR is 39.3

Lab note: S009-F8-19.21 (antibody, human IgG1, kappa, V domains shown, human-murine chimeric antibody, human IgG1/kappa constant regions) VH: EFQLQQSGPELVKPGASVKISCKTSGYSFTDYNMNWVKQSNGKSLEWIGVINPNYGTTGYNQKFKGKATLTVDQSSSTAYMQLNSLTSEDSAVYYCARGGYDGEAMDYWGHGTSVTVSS VL: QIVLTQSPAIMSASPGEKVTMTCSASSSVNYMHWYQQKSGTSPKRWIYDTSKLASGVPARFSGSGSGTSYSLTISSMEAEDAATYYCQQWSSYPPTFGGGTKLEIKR gave competition rate of 92.2
